test.details: Half life in Sprague-Dawley rat plasma at 1 mg/kg, iv
Type: ADME, organism-based
observable: half-life (min)
I only need the number, in min, no unit after it.

### Prompt Look up and report measured half-life for this entry: Cc1ccc(NC(=O)c2cccc(C(F)(F)F)c2)cc1OC1CCN(C(=O)c2ccncc2)CC1
### Response 27.1

* * *

test.details: Apparent clearance in Sprague-Dawley rat plasma at 10 mg/kg, po
Type: ADME, organism-based
recorded.conditions: read-out: CL(app) (converted)
observable: CL/F (mL/min/kg)
I only need the number, in mL/min/kg, no unit after it.

### Prompt Look up and report measured CL/F for this entry: Cc1ccc(NC(=O)c2cccc(C(F)(F)F)c2)cc1OC1CCN(C(=O)c2ccncc2)CC1
### Response 215

* * *

test.details: Tmax in Sprague-Dawley rat plasma at 10 mg/kg, po
Type: ADME, organism-based
observable: Tmax (min)
I only need the number, in min, no unit after it.

### Prompt Look up and report measured Tmax for this entry: Cc1ccc(NC(=O)c2cccc(C(F)(F)F)c2)cc1OC1CCN(C(=O)c2ccncc2)CC1
### Response 30

* * *

test.details: Cmax in Sprague-Dawley rat plasma at 10 mg/kg, po
Format: ADME, organism-based
Parameters: dose 10 mg/kg, route oral
observable: Cmax (ng/mL)
I only need the number, in ng/mL, no unit after it.

### Prompt Look up and report measured Cmax for this entry: Cc1ccc(NC(=O)c2cccc(C(F)(F)F)c2)cc1OC1CCN(C(=O)c2ccncc2)CC1
### Response 125

* * *

test.details: AUC(0 to infinity) in Sprague-Dawley rat plasma at 1 mg/kg, iv
Type: ADME, organism-based
Set-up: dose 1 mg/kg, time infinity, route intravenous
observable: AUC(0-inf)
The answer consists of two parts: a number and, after it, its unit.

### Prompt Look up and report measured AUC(0-inf) for this entry: Cc1ccc(NC(=O)c2cccc(C(F)(F)F)c2)cc1OC1CCN(C(=O)c2ccncc2)CC1
### Response 202 ng·h/mL

* * *

test.details: AUC(0 to infinity) in Sprague-Dawley rat plasma at 10 mg/kg, po
Format: ADME, organism-based
Design: dose 10 mg/kg, time infinity, route oral
observable: AUC(0-inf) (ng·h/mL)
I only need the number, in ng·h/mL, no unit after it.

### Prompt Look up and report measured AUC(0-inf) for this entry: Cc1ccc(NC(=O)c2cccc(C(F)(F)F)c2)cc1OC1CCN(C(=O)c2ccncc2)CC1
### Response 780

* * *

tested.target: Mast/stem cell growth factor receptor Kit (Homo sapiens)
test.details: Inhibition of Tel-fused cKIT (unknown origin) transfected in mouse BAF3 cells assessed as decrease in cell proliferation after 72 hrs by celltiter-glo/CCK8 assay
Assay type: cell-based
Kindly apply the following: YES if GI50 is less than 1 µM, NO in every other case.

A selection of reference data follows.
Cc1ccc(NC(=O)c2ccc(C)c(C(F)(F)F)c2)cc1OC1CCN(C(=O)c2ccno2)CC1 = YES
COc1ccc(NC(=O)c2cccc(C(F)(F)F)c2)cc1OC1CCN(C(=O)c2cccnc2)CC1 = NO
Cc1ccc(NC(=O)c2cccc(C(F)(F)F)c2)cc1OC1CCN(C(=O)c2ccccn2)CC1 = YES
Cc1ccc(NC(=O)c2ccc3c(c2)OCO3)cc1OC1CCN(C(=O)c2cccnc2)CC1 = NO
O=C(Nc1ccc(Cl)c(OC2CCN(C(=O)c3cccnc3)CC2)c1)c1cccc(C(F)(F)F)c1 = YES
O=C(Nc1cccc(OC2CCN(C(=O)c3cccnc3)CC2)c1)c1cccc(C(F)(F)F)c1 = YES
Cc1ccc(NC(=O)c2ccc(CN3CCN(C)CC3)cc2)cc1Nc1nccc(-c2cccnc2)n1 = YES
O=C(Nc1cccc(OC2CCCN(C(=O)c3cccnc3)C2)c1)c1cccc(C(F)(F)F)c1 (centres undefined) = NO
CCC(=O)N1CCC(Oc2cc(NC(=O)c3cccc(C(F)(F)F)c3)ccc2C)CC1 = NO
Cc1ccc(NC(=O)c2ccc(C)c(C(F)(F)F)c2)cc1OC1CCN(C(=O)c2ccncc2)CC1 = YES

### Prompt Could you please tell me whether GI50 recorded for Cc1ccc(NC(=O)c2cccc(C(F)(F)F)n2)cc1OC1CCN(C(=O)c2cccnc2)CC1 is less than 1 µM?
### Response NO

### Prompt Could you please tell me whether GI50 recorded for Cc1ccc(NC(=O)c2cccc(C(F)(F)F)c2)cc1OC1CCN(C(=O)c2ccncc2)CC1 is less than 1 µM?
### Response YES

### Prompt Could you please tell me whether GI50 recorded for Cc1ccc(NC(=O)c2cc(C(C)(C)C)on2)cc1OC1CCN(C(=O)c2cccnc2)CC1 is less than 1 µM?
### Response YES

### Prompt Could you please tell me whether GI50 recorded for CCN(CC)CCNC(=O)c1c(C)[nH]c(/C=C2\C(=O)Nc3ccc(F)cc32)c1C is less than 1 µM?
### Response YES

### Prompt Could you please tell me whether GI50 recorded for Cc1ccc(NC(=O)c2cc(F)cc(C(F)(F)F)c2)cc1OC1CCN(C(=O)c2cccnc2)CC1 is less than 1 µM?
### Response YES

### Prompt Could you please tell me whether GI50 recorded for Cc1ccc(NC(=O)c2ccc(C)c(C(F)(F)F)c2)cc1OC1CCN(C(=O)c2cccnc2)CC1 is less than 1 µM?
### Response YES

### Prompt Could you please tell me whether GI50 recorded for C=CC(=O)N1CCC(Oc2cc(NC(=O)c3cccc(C(F)(F)F)c3)ccc2C)CC1 is less than 1 µM?
### Response YES

### Prompt Could you please tell me whether GI50 recorded for Cc1ccc(NC(=O)c2cccc(C(F)(F)F)c2)cc1OCCNC(=O)c1ccno1 is less than 1 µM?
### Response NO

### Prompt Could you please tell me whether GI50 recorded for Cc1ccc(NC(=O)c2cccc(C(F)(F)F)c2)cc1OC1CCN(C(=O)c2cccnc2)CC1 is less than 1 µM?
### Response YES

### Prompt Could you please tell me whether GI50 recorded for O=C(Nc1cccc(OC2CCCN(C(=O)c3ccno3)C2)c1)c1cccc(C(F)(F)F)c1 (centres undefined) is less than 1 µM?
### Response NO

### Prompt Could you please tell me whether GI50 recorded for Cc1ccc(NC(=O)c2cccc(C(F)(F)F)c2)cc1OC1CCN(C(=O)c2ccno2)CC1 is less than 1 µM?
### Response YES

Source: ChEMBL document CHEMBL3808357
